# credit: ChEMBL document CHEMBL1201862

# System: SF-268
# assay_name: NCI tumour cell line growth inhibition, 48 h
Active and inactive are the calls of the source. No stated cut-off is given here; in the data, active = GI50 up to about 1.1 µM and inactive = higher.
measure: GI50

Cc1cc(N(CCC#N)CCC#N)ccc1/C=N/NC(=O)c1ccccc1 :: > 48.8 µM (inactive)
O=C1O/C(=C\c2ccccc2)N(c2ccccc2)C1=O :: > 100 µM (inactive)
O=C(O)c1cccc(/N=N/c2c(S(=O)(=O)O)ccc3c2C(=O)c2ccccc2C3=O)c1O :: > 100 µM (inactive)
CC1=NC(C(C)C)C(=O)O1 (stereo unspecified) :: 45.1 µM (inactive)

Data request: Item COC(C)(C)CCc1[nH]c2ccccc2c1CC(=O)NCCc1cncn1C with SF-268 - GI50?
Data returned: > 100 µM (inactive)

Data request: Please answer likewise for CC(C)N1CN(c2ccccc2)C2(CCN(CCCC(=O)c3ccc(F)cc3)CC2)C1=O
Data returned: 6.7 µM (inactive)

Data request: Consider next the compound CN(C)c1ccc(/C=C2\N=C(c3ccc(N)cc3)OC2=O)cc1 in the same way.
Data returned: > 100 µM (inactive)

Data request: Then what about the compound O=C(CC/C(CC(=O)c1ccc(Br)cc1)=N\O)Nc1ccc(Cl)c(Cl)c1 ?
Data returned: > 100 µM (inactive)

Data request: Moving on to O1C2C1C1OC1C1OC1C1OC21 (stereo unspecified)
Data returned: > 100 µM (inactive)

Data request: What do you get for O=C(CC1(O)C(=O)Nc2c(Cl)cc(Cl)cc21)c1cccc2ccccc12 (stereo unspecified) ?
Data returned: 21.4 µM (inactive)

Data request: Check O=c1ncccn1[C@@H]1O[C@H](CO)[C@@H](O)[C@@H]1F too.
Data returned: > 100 µM (inactive)
